Where these numbers come from: patent US8946260B2

Molecular target: recombinant Human CYP17 enzyme (17-20 lyase) (Homo sapiens, UniProt P05093)
Construct: made in house; host or cells: A549 cells, adenoviral expression system; purified cell membrane preparations
Sequence (P05093 1-508): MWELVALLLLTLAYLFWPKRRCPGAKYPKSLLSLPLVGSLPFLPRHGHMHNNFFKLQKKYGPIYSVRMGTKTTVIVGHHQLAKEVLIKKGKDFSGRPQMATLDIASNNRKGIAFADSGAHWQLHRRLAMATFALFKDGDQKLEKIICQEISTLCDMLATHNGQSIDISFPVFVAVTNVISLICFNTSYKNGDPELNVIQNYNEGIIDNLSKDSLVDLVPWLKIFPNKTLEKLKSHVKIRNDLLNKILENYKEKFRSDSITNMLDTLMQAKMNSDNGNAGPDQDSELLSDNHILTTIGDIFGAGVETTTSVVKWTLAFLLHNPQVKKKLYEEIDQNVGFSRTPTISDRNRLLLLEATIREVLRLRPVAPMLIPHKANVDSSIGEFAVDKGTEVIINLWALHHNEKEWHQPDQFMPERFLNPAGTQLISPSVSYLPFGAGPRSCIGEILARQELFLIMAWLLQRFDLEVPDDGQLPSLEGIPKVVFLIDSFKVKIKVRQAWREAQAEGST
Test: Cytochrome P450, 17-20 lyase (CYP17-lyase) assay, 17-α-hydroxy pregnenolone [21-3H] as substrate
Type: biochemical
Settings: at 10 μM; read-out: hCYP17 Lyase % Inh
Counter-ions that a name gives are not always drawn.
MEASURED ENDPOINT: inhibition at 10 µM (%)

Reference set, count: 6
Cc1ccncc1N1CCc2c(Cl)cccc2C1=O [Example 12A]	64
Cc1ccncc1N1CCc2ccc(NC(=O)C3CC3)cc2C1=O [Example 25A]	35
Cc1ccncc1-n1ccc2ccc(C(F)(F)F)cc2c1=O [Example 29A]	66
Cc1ccncc1N1CCc2scc(-c3ccc(F)cc3)c2C1=O [Example 15A]	35
Cc1ccncc1N1CCc2cc(Cl)c(Cl)cc2C1=O [Example 41A]	10
Cc1ccncc1N1CCc2ccsc2C1=O [Example 5A]	91

I. Cc1ccncc1N1CCc2ccc(F)c(NCC3CC3)c2C1=O [Example 39A, acetate salt]
II. O=C1c2ccsc2CCN1c1cccnc1 [Example 8A]
III. COc1cc2c(cc1OC)C(=O)N(c1cnccc1C)CC2 [Example 40A]
IV. Cc1ccncc1N1CCc2ccc(Nc3ccccc3)cc2C1=O [Example 30A]
Prompt: List the 4 entries from lowest inhibition at 10 µM to highest inhibition at 10 µM value. A complete answer lists every label in the requested sequence.
Response: III, II, IV, I
(III: 12%, II: 27%, IV: 41%, I: 76%)
